Tested on: Streptococcus suis HE06
Test: percent growth relative to DMSO control; higher = less growth inhibition
Settings: 10 µM; incubation time 18 h
Values of percent growth greater than or equal to 90% map to yes; values below map to no.

Solved entries (count: 5):
1. CS(=O)(=O)c1cccc(-c2cnc3[nH]cc(-c4ccc(CCC(=O)O)cc4)c3c2)c1 | no
2. Cn1c(=O)c2c(S(C)(=O)=O)snc2n(C)c1=O | no
3. C[C@]1(O)C[C@@H](c2nc(-c3ccc4ccc(-c5ccccc5)nc4c3)c3c(N)nccn32)C1 | no
4. O=C(NC1CC1)c1ccc(CSCc2ccccc2Cl)o1 | no
5. Cc1cc(OCC(=O)Nc2ccc(C(C)C)cc2)n(C)c(=O)c1C#N | yes

Is the recorded value of percent growth equal to or greater than 90% for this compound? CCOC(=O)c1noc(N)c1-c1ccccc1
yes

Is the recorded value of percent growth equal to or greater than 90% for this compound? CNC(=O)CNc1nc(-c2ccccn2)nc2scc(-c3ccccc3)c12
no

Is the recorded value of percent growth equal to or greater than 90% for this compound? Brc1cncc(-c2cc(NCCCn3ccnc3)nc(-c3ccccc3)n2)c1
no

Is the recorded value of percent growth equal to or greater than 90% for this compound? COc1ccc(S(=O)(=O)Nc2ccc(CN3CCN(C(=O)c4cccc(C#N)c4)CC3)cc2)cc1
yes

Is the recorded value of percent growth equal to or greater than 90% for this compound? COc1cccc(-c2cc3c(Nc4cccnc4)nccc3[nH]2)c1
yes

Is the recorded value of percent growth equal to or greater than 90% for this compound? CCn1cnc2c(Nc3cc(F)cc(F)c3)nc(C#N)nc21
yes

Is the recorded value of percent growth equal to or greater than 90% for this compound? COc1ccc(C2=NN(C3CCCCCC3)C(=O)C2(C)C)cc1OCCCCOc1ccc(-c2nn[nH]n2)cc1
no

Is the recorded value of percent growth equal to or greater than 90% for this compound? Cc1ccc(S(=O)(=O)N2CCN(C(=O)c3cc(-c4ccccc4)[nH]n3)CC2)cc1
yes

Is the recorded value of percent growth equal to or greater than 90% for this compound? COc1cccn2c(C(=O)N3CCCCC3)c(C(F)(F)F)nc12
yes

Is the recorded value of percent growth equal to or greater than 90% for this compound? Cc1nn2c(=O)c3c([nH]c2c1-c1ccc(Cl)cc1)CCCC3
no

Is the recorded value of percent growth equal to or greater than 90% for this compound? COc1ccc(OC)c(NCc2ccc3nc(N)nc(N)c3c2Cl)c1
no

Is the recorded value of percent growth equal to or greater than 90% for this compound? NCCN(C(=O)c1ccc(Cl)cc1Cl)c1ccc(OCc2ccc(Cl)cc2)cc1
no

Is the recorded value of percent growth equal to or greater than 90% for this compound? COc1cc(-c2cc(-c3ccc(S(C)(=O)=O)cc3)cnc2N)ccc1O
yes

Is the recorded value of percent growth equal to or greater than 90% for this compound? O=C(Nc1ccc(C(F)(F)F)c(C(F)(F)F)c1)c1cc(Cl)ccc1O
no

From: the supplement of paper PMC7866885
